- EXPERIMENTAL SYSTEM: HLA-A3 on HLA typed EBV-LCLs (human)
- PROTOCOL DETAILS: cell-based competition on acid-treated EBV-LCLs against 150 nM fluorescent reference peptide, flow cytometry
EXPERIMENTAL ENDPOINT: pIC50
In simple prose, pIC50 is minus the logarithm base ten of a concentration in moles per litre.

## Task If you can, please state the reported pIC50 value of VLHDDLLEAR (modifications not checked) [decameric HA-1^H peptide …] .
## Result 4.81
